Each entry below carries its reported Predicted Log(M*/C).
Assay explanation: Prediction of Log(M*/C) from measured C and R by Equation 2
Parameters: species or system rat
Conditions: M* determined as a function of measured C and R values (Eq. 2)
Reply: number alone, nothing else.

Compound	Predicted Log(M*/C)
O=C(O)Cc1ccccc1Nc1c(Cl)cccc1Cl [Diclofenac]	0.1
CCc1cccc2c3c([nH]c12)C(CC)(CC(=O)O)OCC3 (stereo not drawn) [Etodolac]	−0.54

stdin: Please report the recorded Predicted Log(M*/C) for CC(C(=O)O)c1cccc(C(=O)c2ccccc2)c1 (stereo not drawn) [Ketoprofen] .
stdout: −0.89

stdin: Quick check: Predicted Log(M*/C) of COc1ccc2c(c1)c(CC(=O)O)c(C)n2C(=O)c1ccc(Cl)cc1 [Indomethacin] ?
stdout: −0.49

stdin: Item O=C(O)CCCc1c[nH]c2ccccc12 [Indolebutylic acid, Indolebutyric acid] has what recorded Predicted Log(M*/C)?
stdout: −0.87

stdin: Fill in the blank: the reported Predicted Log(M*/C) of O=C(O)c1ccccc1O [Salicylic acid] is ____.
stdout: −1.04
